The measured values listed here are drawn from patent US11123355B2.

A collection of compounds and their measured GI Tract stability (%)
- PROTOCOL TEXT: Prodrug Stability Assay in Bio-Relevant Media (FaSSIF with Pancreatin)
- Format: in vitro ADME
- CONDITION SET: 0.5 mg/mL Pancreatin in FaSSIF, 37° C.; HPLC peak area of prodrug at 5 h divided by that at 0 h
- Procedure: Prodrug Stability Assay in Bio-Relevant Media The following assay was employed to evaluate the stability of the prodrugs in simulated gastrointestinal tract conditions. […] If the sample was a clear solution, it was directly analyzed by HPLC. […] For the diluted samples, the area is multiplied by a dilution factor when the data is analyzed. […]
Just the number in %, nothing appended.

Recorded GI Tract stability (%), per entry:
{"columns": ["COMPOUND", "GI Tract stability (%)"],
 "data": [
  ["CCCOC(=O)C(C)(C)NP(=O)(CO[C@H](C)Cn1cnc2c(N)ncnc21)N[C@H](C)c1ccc(C(F)(F)F)cc1 (some centres unmarked) [Example 12B]", 99.1],
  ["CCCOC(=O)C(C)(C)NP(=O)(CO[C@H](C)Cn1cnc2c(N)ncnc21)N[C@@H](C)c1ccc(Cl)cc1 (some centres unmarked) [Example 13A]", 98.5],
  ["CCCOC(=O)C(C)(C)NP(=O)(CO[C@H](C)Cn1cnc2c(N)ncnc21)N[C@@H](C)c1ccc(OC(F)(F)F)cc1 (some centres unmarked) [Example 19A]", 98.1],
  ["CCCOC(=O)C(C)(C)N[P@@](=O)(CO[C@H](C)Cn1cnc2c(N)ncnc21)N[C@H](C)c1ccc(Cl)cc1C [Example 29B]", 12.1],
  ["CCCOC(=O)C(C)(C)NP(=O)(CO[C@H](C)Cn1cnc2c(N)ncnc21)N[C@H](c1ccc(OC(F)(F)F)cc1)C(F)(F)F (some centres unmarked)", 95.8],
  ["CCCOC(=O)C(C)(C)N[P@@](=O)(CO[C@H](C)Cn1cnc2c(N)ncnc21)NCc1ccc(OC(F)(F)F)cc1", 96.0]
]}

Query block: Fill in: GI Tract stability (%) of CCCOC(=O)C(C)(C)N[P@](=O)(CO[C@H](C)Cn1cnc2c(N)ncnc21)N(C)[C@H](C)c1ccc(OC(F)(F)F)cc1 [Example 33B] is ___
Result block: 97.2

Query block: Quick one: CC(C)OC(=O)C(C)(C)N[P@@](=O)(CO[C@H](C)Cn1cnc2c(N)ncnc21)N[C@H](C)c1ccc(Cl)cc1 [Example 35B]
Result block: 70.5

Query block: Quick one: CC(C)OC(=O)C(C)(C)NP(=O)(CO[C@H](C)Cn1cnc2c(N)ncnc21)N[C@H](C)c1ccc(OC(F)(F)F)cc1 (some centres unmarked) [Example 34B]
Result block: 67.4

Query block: Quick one: CC(C)OC(=O)C(C)(C)N[P@@](=O)(CO[C@H](C)Cn1cnc2c(N)ncnc21)NC1(c2ccc(Cl)cc2)CC1 [Example 37B]
Result block: 21.1

Query block: Quick one: CCCOC(=O)C(C)(C)NP(=O)(CO[C@H](C)Cn1cnc2c(N)ncnc21)N[C@H](C)c1ccc(OC(F)(F)F)cc1 (single isomer, unassigned)
Result block: 99.4

Query block: Quick one: CCCOC(=O)C(C)(C)NP(=O)(CO[C@H](C)Cn1cnc2c(N)ncnc21)N[C@H](C)c1ccc(Cl)cc1 (single isomer, unassigned)
Result block: 98.7

Query block: Quick one: CCCOC(=O)C(C)(C)N[P@@](=O)(CO[C@H](C)Cn1cnc2c(N)ncnc21)N[C@H](c1ccc(OC(F)(F)F)cc1)C(F)(F)F (single isomer, unassigned) [Example 27A]
Result block: 79.5

Query block: Quick one: CCCOC(=O)C(C)(C)NP(=O)(CO[C@H](C)Cn1cnc2c(N)ncnc21)N[C@H](C)c1ccc(C#N)cc1 (some centres unmarked) [Example 31B]
Result block: 90.6

Query block: Quick one: CCCOC(=O)C(C)(C)NP(=O)(CO[C@H](C)Cn1cnc2c(N)ncnc21)N[C@H](C)c1ccc(OC(F)(F)F)cc1C (some centres unmarked) [Example 21B]
Result block: 71.5

Query block: Quick one: CCCOC(=O)C(C)(C)NP(=O)(CO[C@H](C)Cn1cnc2c(N)ncnc21)N[C@H](c1cccc(OC)c1)C(F)(F)F (some centres unmarked) [Example 25A]
Result block: 70.3

Query block: Quick one: `CCCOC(=O)C(C)(C)N[P@@](=O)(CO[C@H](C)Cn1cnc2c(N)ncnc21)N[C@H](C)c1cccc(F)c1`
Result block: 90.9
